# PROTOCOL DETAILS: Metabolic (microsomal) stability assay, human liver microsomes (HLM)
# Assay type: in vitro ADME
# TEST PARAMETERS: predicted clearance as percent of liver blood flow, 1 μM
ENDPOINT NAME: HLM QH (%)
Respond with the bare value in %.

Example cases with answers are listed next.
>>> number("C[C@H](Oc1cc(-n2cc3c(n2)CCN(C)C3)nc(-c2noc3c2CCC[C@@]32CCCc3sc(N)c(C#N)c32)n1)[C@@H]1CCCN1C")
28
>>> number("CO[C@H]1CCN(C)[C@@H]1[C@H](C)Oc1cc(-n2ccc(C(=O)N[C@@H]3CCOC3)n2)nc(-c2onc3c2CCC[C@@]32CCCc3sc(N)c(C#N)c32)n1")
56
>>> number("C[C@H](Oc1cc(-n2ccc(C(=O)N3CCCC3)n2)nc(-c2noc3c2CCC[C@@]32CCCc3sc(N)c(C#N)c32)n1)[C@@H]1CCCN1C")
30
>>> number("C[C@H](Oc1nc(-c2noc3c2CCC[C@@]32CCCc3sc(N)c(C#N)c32)nc(N2CCNC3(CC3)C2)c1Cl)[C@@H]1C[C@@H](F)CN1C")
65
>>> number("CC(C)N1CCCN(c2cc(-c3ccn(C)n3)nc(-c3noc4c3CCC[C@@]43CCCc4sc(N)c(C#N)c43)n2)[C@@H](C)C1")
33

# HLM QH lookup, item C[C@H](Oc1cc(N2CCNC3(CC3)C2)nc(-c2noc3c2CCC[C@@]32CCCc3sc(N)c(C#N)c32)n1)[C@@H]1CCCN1C
28

Do the same for C[C@H](Oc1cc(N2CCOC3(COC3)C2)nc(-c2noc3c2CCC[C@@]32CCCc3sc(N)c(C#N)c32)n1)[C@@H]1CCCN1C please
34

Now consider C[C@H](Oc1cc(-n2ccnn2)nc(-c2onc3c2CCC[C@@]32CCCc3sc(N)c(C#N)c32)n1)[C@@H]1CCCN1C .
45

Entry to check: C[C@H](Oc1cc(N2CCNCC23CCOC3)nc(-c2onc3c2CCC[C@@]32CCCc3sc(N)c(C#N)c32)n1)[C@@H]1CCCN1C (some centres unmarked)
30

Same thing, different compound: CO[C@H]1CCN(C)[C@@H]1[C@H](C)Oc1cc(-n2ccc(C(=O)N(C)C3COC3)n2)nc(-c2noc3c2CCC[C@@]32CCCc3sc(N)c(C#N)c32)n1
67

====

# PROTOCOL DETAILS: Solubility measurement (DMSO solution method), McIlvaine buffer pH 4.5 or 6.8
# Type: physicochemical
# TEST PARAMETERS: aqueous buffer, kinetic from dmso stock; McIlvaine buffer pH 6.8; DMSO stock diluted to 250 μM; 24 h shaking at ambient temperature; read-out: solubility pH 6.8
# Procedure: The DMSO solution is diluted with an aqueous medium (Mcllvaine buffer with pH=4.5 or 6.8) to a final concentration of 250 μM. After 24 h of shaking at ambient temperature a potentially formed precipitate is removed by filtration. The concentration of the test compound in the filtrate is determined by LC-UV methods by calibrating the signal to the signal of a reference solution with complete dissolution of the test compound in acetonitrile/water (1:1) with known concentration.
Items are presented alongside their recorded solubility at 24 h.

Name the reported solubility at 24 h value associated with the molecule C[C@H](Oc1cc(-n2ccc(-c3cnccn3)n2)nc(-c2noc3c2CCC[C@@]32CCCc3sc(N)c(C#N)c32)n1)[C@@H]1CCCN1C
< 1 µg/mL

Now try C[C@H](Oc1nc(-c2noc3c2CCC[C@@]32CCCc3sc(N)c(C#N)c32)nc(N2CCNC3(CC3)C2)c1Cl)[C@@H]1C[C@@H](F)CN1C .
< 1 µg/mL

Param item: C[C@H](Oc1cc(N2CCN(C)C3(CCOC3)C2)nc(-c2noc3c2CCC[C@@]32CCCc3sc(N)c(C#N)c32)n1)[C@@H]1C[C@@H](F)CN1C (some centres unmarked)
< 1 µg/mL

Also, C[C@H](Oc1cc(N2CCNC3(CC3)C2)nc(-c2onc3c2CCC[C@@]32CCCc3sc(N)c(C#N)c32)n1)[C@@H]1C[C@@H](F)CN1C please.
> 86 µg/mL

Same thing, different molecule: CO[C@@H]1C[C@@H]([C@H](C)Oc2cc(-c3cnn(C)n3)nc(-c3noc4c3CCC[C@@]43CCCc4sc(N)c(C#N)c43)n2)N(C)C1
< 1 µg/mL

====

# PROTOCOL DETAILS: Plasma protein binding assay (PPB), equilibrium dialysis, 10% FCS in PBS
# Type: in vitro ADME
# TEST PARAMETERS: bovine, read-out: PPB 10% FCS (% fu)
We use 0.2 as the dividing line for fraction unbound: on or above the line is fulfilled, below is not fulfilled.

>>> assigned_class("C[C@H](Oc1cc(N2CCNC3(COC3)C2)nc(-c2noc3c2CCC[C@@]32CCCc3sc(N)c(C#N)c32)n1)[C@@H]1C[C@@H](F)CN1C")
"not fulfilled"
>>> assigned_class("C[C@H](Oc1cc(N2CCN3CCC[C@]3(C)C2)nc(-c2noc3c2CCC[C@@]32CCCc3sc(N)c(C#N)c32)n1)[C@@H]1CCCN1C")
"fulfilled"
>>> assigned_class("C[C@@H]1CN(c2cc(O[C@@H](C)[C@@H]3CCCN3C)nc(-c3noc4c3CCC[C@@]43CCCc4sc(N)c(C#N)c43)n2)CCN1")
"fulfilled"
>>> assigned_class("C[C@H](Oc1cc(N2CCN(C)C3(COC3)C2)nc(-c2noc3c2CCC[C@@]32CCCc3sc(N)c(C#N)c32)n1)[C@@H]1C[C@@H](F)CN1C")
"fulfilled"

Record C[C@H](Oc1cc(-c2cn(C)nn2)nc(-c2onc3c2CCC[C@@]32CCCc3sc(N)c(C#N)c32)n1)[C@@H]1CCCN1C ; criterion: fraction unbound no lower than 0.2. Met?
fulfilled

Also check C[C@H](Oc1cc(N2CC[C@@H](N(C)C)C2)nc(-c2noc3c2CCC[C@@]32CCCc3sc(N)c(C#N)c32)n1)[C@@H]1CCCN1C
fulfilled

Lookup C[C@H](Oc1cc(N2CCN(C)CC2)nc(-c2noc3c2CCC[C@@]32CCCc3sc(N)c(C#N)c32)n1)[C@@H]1CCCN1[C@@H]1CCOC1
not fulfilled

Queued: C[C@H](Oc1cc(-n2ccc(C(=O)N[C@@H]3CCOC3)n2)nc(-c2noc3c2CCC[C@@]32CCCc3sc(N)c(C#N)c32)n1)[C@@H]1CCCN1C
fulfilled

====

# Test system: KRAS G12C-dependent Ba/F3 cells
# PROTOCOL DETAILS: Ba/F3 proliferation assay, KRAS G12C
# Assay type: cell-based
# TEST PARAMETERS: Mus musculus, BaF3, 72 h, AlamarBlue
Strictly below 30 nM in IC50: Fulfilled. Otherwise: Not fulfilled.

Examples from the recorded data:
>>> assigned_class("CO[C@@H]1C[C@@H]([C@H](C)Oc2cc(-c3ccn(C4COC4)n3)nc(-c3noc4c3CCC[C@@]43CCCc4sc(N)c(C#N)c43)n2)N(C)C1")
"Fulfilled"
>>> assigned_class("COC(=O)c1ccc(-c2cc(O[C@@H](C)[C@@H]3CCCN3C)nc(-c3noc4c3CCC[C@@]43CCCc4sc(N)c(C#N)c43)n2)o1")
"Fulfilled"
>>> assigned_class("C[C@H](Oc1cc(N2C[C@H](C)N[C@@H](C)C2)nc(-c2onc3c2CCC[C@@]32CCCc3sc(N)c(C#N)c32)n1)[C@@H]1CCCN1C")
"Not fulfilled"
>>> assigned_class("C[C@H]1CN(C)CCCN1c1cc(N2CC[C@H](N(C)C)C2)nc(-c2noc3c2CCC[C@@]32CCCc3sc(N)c(C#N)c32)n1")
"Not fulfilled"
>>> assigned_class("CO[C@H]1CCN(C)[C@@H]1[C@H](C)Oc1cc(N2CCN(C)C3(CC3)C2)nc(-c2noc3c2CCC[C@@]32CCCc3sc(N)c(C#N)c32)n1")
"Not fulfilled"
>>> assigned_class("C[C@H](Oc1cc(N2CCC[C@@H](O)C2)nc(-c2noc3c2CCC[C@@]32CCCc3sc(N)c(C#N)c32)n1)[C@@H]1CCCN1C")
"Not fulfilled"
>>> assigned_class("CO[C@H]1CCN(C)[C@@H]1[C@H](C)Oc1cc(-n2ccc(C(N)=O)n2)nc(-c2noc3c2CCC[C@@]32CCCc3sc(N)c(C#N)c32)n1")
"Fulfilled"
>>> assigned_class("C[C@H](Oc1cc(N2CCNC3(CC3)C2)nc(-c2noc3c2CCC[C@@]32CCCc3sc(N)c(C#N)c32)n1)[C@@H]1C[C@@H](F)CN1C")
"Not fulfilled"
>>> assigned_class("CO[C@H]1CCN(C)[C@@H]1[C@H](C)Oc1cc(-n2ccc(C(=O)N[C@@H]3CCOC3)n2)nc(-c2noc3c2CCC[C@@]32CCCc3sc(N)c(C#N)c32)n1")
"Fulfilled"
>>> assigned_class("C[C@H](Oc1cc([C@H]2CCN(C)C2)nc(-c2noc3c2CCC[C@@]32CCCc3sc(N)c(C#N)c32)n1)[C@@H]1CCCN1C")
"Not fulfilled"

Note: attention shifts to another entry.
IC50 under 30 nM? Item: C[C@H](Oc1cc(N2CCC(N(C)C)CC2)nc(-c2noc3c2CCC[C@@]32CCCc3sc(N)c(C#N)c32)n1)[C@@H]1CCCN1C
Not fulfilled
